Data provenance is ChEMBL document CHEMBL2176891.

Attribute: MNTC at 24 h
Assay: Cytotoxicity against BALB/c mouse splenocytes assessed as highest nontoxic concentration by measuring [3H]-thymidine incorporation after 24 hrs by beta-radiation counting
Type: cell-based, Splenocyte
Conditions: mouse, splenocytes, read-out: Activity
Write the answer as a number in µg/mL, unit excluded.

Solved cases (4 shown):
>  <smiles-record>
C/C(COc1ccccc1)=N\Nc1nc(-c2ccc([N+](=O)[O-])cc2)cs1

>  <unit-abbrev>
µg/mL

>  <MNTC at 24 h>
100

$$$$
>  <smiles-record>
COc1ccc(-c2csc(N/N=C(\C)COc3ccccc3)n2)cc1

>  <unit-abbrev>
µg/mL

>  <MNTC at 24 h>
100

$$$$
>  <smiles-record>
C/C(COc1ccccc1)=N\Nc1nc(-c2cccs2)cs1

>  <unit-abbrev>
µg/mL

>  <MNTC at 24 h>
50

$$$$
>  <smiles-record>
C/C(COc1ccccc1)=N\Nc1nc(-c2ccc(C)cc2)cs1

>  <unit-abbrev>
µg/mL

>  <MNTC at 24 h>
100

$$$$

Continue with the compound presented below.
Query: Give MNTC at 24 h for the following compound: C/C(COc1ccccc1)=N\Nc1nc(-c2ccc(Br)cc2)cs1
Reply: 100

###

Test: Cytotoxicity against BALB/c mouse splenocytes assessed as highest nontoxic concentration by measuring [3H]-thymidine incorporation after 24 hrs by beta-radiation counting
Assay type: cell-based, Splenocyte
Settings: mouse, splenocytes, read-out: Activity
reported-property: MNTC at 24 h (µg/mL)
Unit µg/mL implied. Number only.

# count of solved cases: 5
>  <molecule>
C/C(COc1ccccc1)=N\N=C1/NC(=O)C(c2ccccc2)S1 (racemic)

>  <unit-abbrev>
µg/mL

>  <MNTC at 24 h>
25

$$$$
>  <molecule>
C/C(COc1ccccc1)=N\N=C1\SC(C)C(=O)N1C (racemic)

>  <unit-abbrev>
µg/mL

>  <MNTC at 24 h>
25

$$$$
>  <molecule>
CCC1S/C(=N/N=C(\C)COc2ccccc2)NC1=S (racemic)

>  <unit-abbrev>
µg/mL

>  <MNTC at 24 h>
25

$$$$
>  <molecule>
C/C(COc1ccccc1)=N\N=c1\scc(-c2ccccc2)n1C

>  <unit-abbrev>
µg/mL

>  <MNTC at 24 h>
10

$$$$
>  <molecule>
C/C(COc1ccccc1)=N\Nc1nc(-c2ccccc2)cs1

>  <unit-abbrev>
µg/mL

>  <MNTC at 24 h>
50

$$$$

Would you kindly look at the next entry?
Query: Give the measured MNTC at 24 h for C/C(COc1ccccc1)=N\N=C1\SC(c2ccccc2)C(=S)N1c1ccccc1 (racemic)
Reply: 100

###

Target: Procathepsin L (Homo sapiens, UniProt P07711)
Sequence (P07711 114-333 limits assumed): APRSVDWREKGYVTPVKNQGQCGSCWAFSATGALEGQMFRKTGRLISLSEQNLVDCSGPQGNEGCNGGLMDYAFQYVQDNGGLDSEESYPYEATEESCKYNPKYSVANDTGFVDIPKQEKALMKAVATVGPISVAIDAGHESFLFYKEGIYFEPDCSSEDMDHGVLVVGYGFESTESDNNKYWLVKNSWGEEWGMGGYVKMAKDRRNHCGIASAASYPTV
Assay: Inhibition of recombinant cathepsin L using ZFR-pNA as substrate at 100 uM preincubated for 45 mins
reported-property: inhibition (%)

I. CCC1S/C(=N/N=C(\C)COc2ccccc2)NC1=O (racemic)
II. C/C(COc1ccccc1)=N\N=C1\SC(c2ccccc2)C(=S)N1c1ccccc1 (racemic)
III. C/C(COc1ccccc1)=N\N=C1/NC(=O)C(C)S1 (racemic)
Query: From the items above, give an ordering by inhibition that starts at the lowest reported number. List the labels according to the requested ordering.
Reply: III, I, II
(III: 0%, I: 5%, II: 89%)

###

Target: Cruzipain (Trypanosoma cruzi) (UniProt P25779)
Sequence (P25779 123-467 limits assumed): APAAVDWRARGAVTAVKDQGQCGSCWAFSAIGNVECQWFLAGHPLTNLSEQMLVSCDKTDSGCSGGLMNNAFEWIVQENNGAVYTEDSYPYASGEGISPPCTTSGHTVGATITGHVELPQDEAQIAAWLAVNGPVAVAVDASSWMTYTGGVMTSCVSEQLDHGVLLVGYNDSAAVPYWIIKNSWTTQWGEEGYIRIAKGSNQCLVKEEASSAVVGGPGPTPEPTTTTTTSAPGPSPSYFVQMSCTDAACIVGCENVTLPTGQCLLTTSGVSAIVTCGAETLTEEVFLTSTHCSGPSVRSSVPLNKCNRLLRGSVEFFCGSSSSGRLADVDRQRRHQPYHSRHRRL
Experiment: Inhibition of Trypanosoma cruzi recombinant cruzain using Z-FR-AMC as substrate at 20 uM preincubated for 10 mins before substrate addition
Calls of active or inactive are those of the source. No cut-off for these calls is given here.
reported-property: inhibition

Example entries and their recorded answers appear below.
>  <compound>
C/C(COc1ccccc1)=N\N=C1\SC(C)C(=O)N1c1ccccc1 (racemic)

>  <result>
50%

$$$$
>  <compound>
C/C(COc1ccccc1)=N\N=c1\scc(-c2ccccc2)n1C

>  <result>
inactive

$$$$
>  <compound>
C/C(COc1ccccc1)=N\N=c1\scc(-c2ccccc2)n1-c1ccccc1

>  <result>
inactive

$$$$
>  <compound>
C/C(COc1ccccc1)=N\Nc1nc(-c2ccc(Cl)c(Cl)c2Cl)cs1

>  <result>
inactive

$$$$
>  <compound>
C/C(COc1ccccc1)=N\Nc1nc(-c2ccccn2)cs1

>  <result>
inactive

$$$$

Query: Note down inhibition recorded for C/C(COc1ccccc1)=N\N=C1\SC(C(C)C)C(=O)N1c1ccccc1 (racemic)
Reply: 78%

Query: Return reported inhibition. Input compound: C/C(COc1ccccc1)=N\N=C1\SC(C)C(=O)N1C (racemic)
Reply: 0%

Query: Return inhibition for the following compound: C/C(COc1ccccc1)=N\Nc1nc(-c2ccc(C(C)(C)C)cc2)cs1
Reply: inactive

Query: Specify reported inhibition for the compound shown: C/C(COc1ccccc1)=N\Nc1nc(-c2ccccc2)cs1
Reply: inactive

Query: Please indicate inhibition recorded for C/C(COc1ccccc1)=N\Nc1nc(-c2ccc(Br)cc2)cs1
Reply: 25%

Query: Report inhibition for C/C(COc1ccccc1)=N\Nc1nc(-c2ccc(Cl)c(Cl)c2)cs1
Reply: 20%

Query: // Input: C/C(COc1ccccc1)=N\N=C1/NC(=O)C(C(C)C)S1 (racemic) . Output its inhibition only.
Reply: 60.8%

Query: Provide inhibition value for the following compound: C/C(COc1ccccc1)=N\Nc1nc(-c2cccnc2)cs1
Reply: inactive

Query: Using the record for C/C(COc1ccccc1)=N\N=C1\SC(c2ccccc2)C(=O)N1C (racemic) , state its measured inhibition.
Reply: 27%

Query: Provide only the value of recorded inhibition for C/C(COc1ccccc1)=N\Nc1nc(-c2ccc3ccccc3c2)cs1
Reply: inactive

Query: Provide measured inhibition value, entry: CCC1S/C(=N/N=C(\C)COc2ccccc2)N(c2ccc(OC)cc2)C1=O (racemic)
Reply: 71%

Query: Report measured inhibition; entry is C/C(COc1ccccc1)=N\Nc1nc(-c2cccc([N+](=O)[O-])c2)cs1
Reply: inactive

Query: State, in one line, measured inhibition of CCC1S/C(=N/N=C(\C)COc2ccccc2)NC1=O (racemic)
Reply: 5%

Query: Answer with the recorded inhibition of C/C(COc1ccccc1)=N\N=C1\SCC(=O)N1C only.
Reply: 0%

Query: Find the measured inhibition of C/C(COc1ccccc1)=N\Nc1nc(-c2ccc(Cl)cc2Cl)cs1 and report it.
Reply: 40%

Query: Look up and state reported inhibition for C/C(COc1ccccc1)=N\N=C1\SCC(=O)N1c1ccccc1
Reply: 66%

Query: Find the measured inhibition of C/C(COc1ccccc1)=N\Nc1nc(-c2ccc(Cl)cc2)cs1 and report it.
Reply: 13%
